Target: CCR3 receptor (UniProt P51677)
Test: CCR3 Receptor Binding Assay ([125I]-labeled human eotaxin/CCL11 displacement on cells)
Conditions: Free (free form of the compound)
Hi there, I'd appreciate the recorded Ki for every entry that follows.

Task: Entry Cc1ccc(C)c(Sc2ccc(C#N)cc2S(=O)(=O)N2CCSCC2)c1 has what Ki?
Result: > 5 nM

Task: Endpoint output: Ki of Cc1ccc(C)c(Sc2ccc([N+](=O)[O-])cc2S(=O)(=O)N2CCOCC2)c1 . Value?
Result: > 5 nM

Task: Name the recorded Ki for N#Cc1ccc(Oc2cc(F)ccc2F)c(S(=O)(=O)N2CCOCC2)c1 .
Result: > 5 nM
